Biological target: Retinoic acid receptor RXR-beta (Homo sapiens, UniProt P28702)
Sequence (P28702 whole entry): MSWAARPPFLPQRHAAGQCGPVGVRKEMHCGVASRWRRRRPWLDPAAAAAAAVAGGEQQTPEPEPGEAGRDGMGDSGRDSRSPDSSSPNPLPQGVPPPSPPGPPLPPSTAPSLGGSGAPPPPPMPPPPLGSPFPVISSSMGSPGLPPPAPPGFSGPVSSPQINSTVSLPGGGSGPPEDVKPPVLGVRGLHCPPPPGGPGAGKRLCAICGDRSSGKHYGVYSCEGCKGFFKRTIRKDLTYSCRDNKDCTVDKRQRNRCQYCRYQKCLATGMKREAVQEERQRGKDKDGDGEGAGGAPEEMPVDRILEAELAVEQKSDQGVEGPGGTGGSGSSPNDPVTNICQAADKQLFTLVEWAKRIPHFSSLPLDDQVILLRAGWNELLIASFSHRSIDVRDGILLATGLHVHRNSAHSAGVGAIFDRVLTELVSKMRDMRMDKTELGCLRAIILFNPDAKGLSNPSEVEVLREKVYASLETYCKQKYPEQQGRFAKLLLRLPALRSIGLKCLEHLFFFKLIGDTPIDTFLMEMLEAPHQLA
Assay: Binding affinity to RXRbeta
Conditions: read-out: Ki
METRIC: Ki (nM)

>>> reported("CCCN(C/C=C/C(C)=C/C(=O)O)c1cc2c(cc1OC)C(C)(C)CCC2(C)C")
721
>>> reported("CCN(C/C=C/C(C)=C/C(=O)O)c1ccc2c(c1)C(C)(C)CCC2(C)C")
185
>>> reported("CC(/C=C/CN(Cc1ccccc1)c1cc(C(C)(C)C)cc(C(C)(C)C)c1)=C\\C(=O)O")
238
>>> reported("CCCCCCCCN(C/C=C/C(C)=C/C(=O)O)c1cc(C(C)(C)C)cc(C(C)(C)C)c1")
126
>>> reported("CC(C)=CCN(C/C=C/C(C)=C/C(=O)O)c1cc(C(C)(C)C)cc2c1CCC2(C)C")
327

P. CCCN(C/C=C/C(C)=C/C(=O)O)c1cc(C(C)(C)C)cc(C(C)(C)C)c1
Q. CC(/C=C/CN(c1cc(C(C)(C)C)cc2c1CCC2(C)C)C(C)C)=C\C(=O)O
R. CCCN(C(=O)/C=C/C(C)=C/C(=O)O)c1cc(C(C)(C)C)cc(C(C)(C)C)c1
S. CC(/C=C/[C@@H]1CCCN1c1ccc2c(c1)C(C)(C)CCC2(C)C)=C\C(=O)O
Input: Rank ascending by Ki. Respond with an ordered listing of the labels, as requested.
Output: P, S, Q, R
